Here the recorded Kd is given for each entry.
Target: T1, human BCMA on NCI-H929, OPM2 and Raji cells (human, UniProt Q02223 1-184)
T1 construct: endogenous BCMA of human cell lines; also called TNFRSF17; CD269
T1 chain: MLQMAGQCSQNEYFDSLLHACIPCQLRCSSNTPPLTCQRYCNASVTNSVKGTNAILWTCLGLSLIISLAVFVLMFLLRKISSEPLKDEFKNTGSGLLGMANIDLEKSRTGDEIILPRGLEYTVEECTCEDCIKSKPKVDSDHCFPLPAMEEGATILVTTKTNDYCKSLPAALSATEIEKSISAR
Assay: flow cytometry, OPM2 cells
Measured property: Kd (nM)

1. AB200 (antibody, human IgG1, kappa, V domains shown, IgG1 kappa) VH: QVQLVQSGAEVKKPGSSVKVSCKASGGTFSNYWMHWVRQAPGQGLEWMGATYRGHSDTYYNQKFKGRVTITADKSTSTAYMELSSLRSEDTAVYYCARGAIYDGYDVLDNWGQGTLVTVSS VL: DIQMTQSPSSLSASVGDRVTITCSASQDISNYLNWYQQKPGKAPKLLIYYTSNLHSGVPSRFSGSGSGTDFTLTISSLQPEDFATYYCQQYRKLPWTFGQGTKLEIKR | 10
2. AB215 (antibody, human IgG1, kappa, V domains shown, IgG1 kappa) VH: QVQLVQSGAEVKKPGSSVKVSCKASGGTFTNYWIHWVRQAPGQGLEWMGGTYRSHSTTYYNQKFKSRVTITADKSTSTAYMELSSLRSEDTAVYYCARGAVYHGYDVIDNWGQGTLVTVSS VL: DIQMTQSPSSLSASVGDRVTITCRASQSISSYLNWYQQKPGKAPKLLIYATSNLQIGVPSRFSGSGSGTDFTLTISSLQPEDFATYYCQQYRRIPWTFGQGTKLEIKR | 3.63
3. AB216 (antibody, human IgG1, kappa, V domains shown, IgG1 kappa) VH: QVQLVQSGAEVKKPGSSVKVSCKASGGTFSNYWIHWVRQAPGQGLEWMGATYRIQSDTYYNQKYKSRVTITADKSTSTAYMELSSLRSEDTAVYYCARGAVYHGYDVIDNWGQGTLVTVSS VL: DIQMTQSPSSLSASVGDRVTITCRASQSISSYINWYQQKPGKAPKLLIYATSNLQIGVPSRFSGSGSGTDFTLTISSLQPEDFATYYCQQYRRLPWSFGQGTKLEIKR | 2.27

Origin of values: patent US20240327535A1
